Test system: breast line MDA468
Run description: In vitro cell culture growth assay (MTS), MDA468
Format: cell-based, human
Assay conditions: Homo sapiens, 72 h, MDA468 cells, three days after drug treatment
pIC50: −log10 of the molar value.
Give Criterion met when the value for pIC50 is at least 6. Give Criterion not met when it is less.

### Prompt Confirm if pIC50 reported for the compound CCCOC(=O)N1CCC(n2ncc3c(N4CCOCC4)nc(-c4ccc(NC(=O)Nc5ccncc5)cc4)nc32)CC1 is 6 or above.
### Response Criterion met

### Prompt Confirm if pIC50 reported for the compound c1ccc(-n2ncc3c(N4CCOCC4)nc(-c4cc5ccccc5o4)nc32)cc1 is 6 or above.
### Response Criterion not met

### Prompt Confirm if pIC50 reported for the compound CNC(=O)Nc1ccc(-c2nc(N3CCOC(C)C3)c3cnn(C4CCN(C(=O)OC)CC4)c3n2)cc1 (stereo not shown) is 6 or above.
### Response Criterion met

### Prompt Confirm if pIC50 reported for the compound O=C(Nc1ccc(-c2nc(N3CCOCC3)c3cnn(C4CCN(C(=O)c5cccnc5)CC4)c3n2)cc1)Nc1cccnc1 is 6 or above.
### Response Criterion met
